# Test system: UACC-257
# Experiment: NCI tumour cell line growth inhibition, 48 h
The source made the active and inactive calls. Rule as the data show it: active = GI50 up to about 1.1 µM and inactive = higher.
Labels: 1 = active, 0 = inactive

COc1cc2c(c(OC)c1OC)-c1ccc(SC)c(=O)cc1[C@@H](NCc1ccc([N+](=O)[O-])cc1)CC2	1
Nc1cc(CO)cc(Nc2c3ccccc3nc3occc23)c1	0
COc1ccc(Cc2c(N)[nH]c(=O)[nH]c2=O)cc1	0
CSc1n[nH]c2[nH]nc(C)c12	0
CC1=CC(=O)C2=C(C)CCC3C(C)C(=O)OC3C12 (configuration not stated)	0
Cc1cc2cc3c(C)cc(=O)oc3c(C)c2o1	0
NCCCOc1ccc([N+](=O)[O-])cc1Cl	0
